Attribution: patent US7393853B2

readoutType: melting point

Take a look at these entries with their results.
# compound, readoutType, measValue
records = [
    ("Cc1ccc(C(=O)CN2c3nc(-c4ccncn4)cc(=O)n3CCC2C(F)(F)F)cc1 (racemic)", "melting point", "239 to 241 °C"),
    ("O=C(CN1c2nc(-c3ccncn3)cc(=O)n2CCC1C(F)(F)F)c1cccc(Br)c1 (racemic)", "melting point", "236 to 238 °C"),
    ("N#Cc1ccc(C(=O)CN2c3nc(-c4ccncn4)cc(=O)n3CCC2C(F)(F)F)cc1 (racemic)", "melting point", "201 to 203 °C"),
    ("O=c1cc(-c2ccncn2)nc2n1CCC(C(F)(F)F)N2CCc1ccccc1 (racemic)", "melting point", "147 to 149 °C"),
    ("O=C(CN1c2nc(-c3ccncn3)cc(=O)n2CCC1C(F)(F)F)c1ccc(-c2ccccc2)cc1 (racemic)", "melting point", "231 to 233 °C"),
    ("O=C(CN1c2nc(-c3ccncn3)cc(=O)n2CCC1C(F)(F)F)c1cccc(F)c1 (racemic)", "melting point", "245 to 247 °C"),
    ("O=c1cc(-c2ccncn2)nc2n1CCC(C(F)(F)F)N2Cc1ccccc1 (racemic)", "melting point", "177 to 179 °C"),
    ("O=C(CN1c2nc(-c3ccncc3)c(F)c(=O)n2CCC1C(F)(F)F)c1ccccc1 (racemic)", "melting point", "241 to 242 °C"),
]

**Q:** Given the compound O=C(CN1c2nc(-c3ccncn3)cc(=O)n2CCC1C(F)(F)F)c1ccc(F)cc1 (racemic) , what is its reported melting point?
**A:** 253 to 255 °C
